# credit: paper PMC4072508

targetUnderTest: T1, Bfl-1, Q16548
T1 chain: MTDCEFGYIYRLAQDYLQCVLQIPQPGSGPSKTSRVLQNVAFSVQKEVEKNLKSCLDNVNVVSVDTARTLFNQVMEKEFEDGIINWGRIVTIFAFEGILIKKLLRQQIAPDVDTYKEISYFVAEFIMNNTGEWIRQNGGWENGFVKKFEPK
experimentDescription: peptide SPOT array, c-Myc-tagged receptor at 1 uM or 100 nM, anti-c-Myc-Cy3
# if measured SPOT signal as a fraction of Bim BH3's signal on the same receptor and array < 0.09: 1.0  # else: 0.0

Before answering, review these 4 worked examples.
Is 0.09 strictly greater than the binder's reported SPOT signal as a fraction of Bim BH3's signal on the same receptor and array? binder: TAGLRPGARLDRVCGQTLPSLRPEAA [SIPA1]
0.0

Is 0.09 strictly greater than the binder's reported SPOT signal as a fraction of Bim BH3's signal on the same receptor and array? binder: SHFVACMTAILNQMGDQHYSFYIETF [DOCK2]
1.0

Is 0.09 strictly greater than the binder's reported SPOT signal as a fraction of Bim BH3's signal on the same receptor and array? binder: PALLVHWAKCLQKMGRGLNSSYDQQE [RGPD2]
0.0

Is 0.09 strictly greater than the binder's reported SPOT signal as a fraction of Bim BH3's signal on the same receptor and array? binder: TSRINEVQVNLSLLLDDLLLPAQSTL [SPHKAP]
1.0

Continuing:
Is 0.09 strictly greater than the binder's reported SPOT signal as a fraction of Bim BH3's signal on the same receptor and array? binder: AELRLFLAQRLRWLLDSCPASRATCV [NBEAL2]
0.0

Is 0.09 strictly greater than the binder's reported SPOT signal as a fraction of Bim BH3's signal on the same receptor and array? binder: AIILCNVCGNDCTDCDRFLHLHRRTK [MYCBP2]
0.0

Is 0.09 strictly greater than the binder's reported SPOT signal as a fraction of Bim BH3's signal on the same receptor and array? binder: PVGYLVESGRLSVMGCDVLKAVSDYF [MFI2]
1.0

Is 0.09 strictly greater than the binder's reported SPOT signal as a fraction of Bim BH3's signal on the same receptor and array? binder: GVMTQEVGQLDQDMGDDVYQQYRSLT [HUWE1]
1.0

Is 0.09 strictly greater than the binder's reported SPOT signal as a fraction of Bim BH3's signal on the same receptor and array? binder: PEDLQDVGWFLHKLSQQILKKEKEKK [TLR5]
0.0

Is 0.09 strictly greater than the binder's reported SPOT signal as a fraction of Bim BH3's signal on the same receptor and array? binder: GGRVKLVHSALIQLGDSLSHKGNEFW [WDR60]
0.0

Is 0.09 strictly greater than the binder's reported SPOT signal as a fraction of Bim BH3's signal on the same receptor and array? binder: MEMYQPSAVVDQCGADSLSGDRLGCF [HDAC2]
1.0

Is 0.09 strictly greater than the binder's reported SPOT signal as a fraction of Bim BH3's signal on the same receptor and array? binder: YFKLFRASGDMRTNLDNYLYEIQLSS [IGF2R]
0.0
